Attribution: paper PMC2990764

target_under_test: human muscle type 6-phosphofructo-1-kinase (PFK-M) (Homo sapiens, UniProt P08237, K617A)
Construct: recombinant human PFK-M mutant expressed in E. coli RL257
Sequence (P08237 2-780 K617A): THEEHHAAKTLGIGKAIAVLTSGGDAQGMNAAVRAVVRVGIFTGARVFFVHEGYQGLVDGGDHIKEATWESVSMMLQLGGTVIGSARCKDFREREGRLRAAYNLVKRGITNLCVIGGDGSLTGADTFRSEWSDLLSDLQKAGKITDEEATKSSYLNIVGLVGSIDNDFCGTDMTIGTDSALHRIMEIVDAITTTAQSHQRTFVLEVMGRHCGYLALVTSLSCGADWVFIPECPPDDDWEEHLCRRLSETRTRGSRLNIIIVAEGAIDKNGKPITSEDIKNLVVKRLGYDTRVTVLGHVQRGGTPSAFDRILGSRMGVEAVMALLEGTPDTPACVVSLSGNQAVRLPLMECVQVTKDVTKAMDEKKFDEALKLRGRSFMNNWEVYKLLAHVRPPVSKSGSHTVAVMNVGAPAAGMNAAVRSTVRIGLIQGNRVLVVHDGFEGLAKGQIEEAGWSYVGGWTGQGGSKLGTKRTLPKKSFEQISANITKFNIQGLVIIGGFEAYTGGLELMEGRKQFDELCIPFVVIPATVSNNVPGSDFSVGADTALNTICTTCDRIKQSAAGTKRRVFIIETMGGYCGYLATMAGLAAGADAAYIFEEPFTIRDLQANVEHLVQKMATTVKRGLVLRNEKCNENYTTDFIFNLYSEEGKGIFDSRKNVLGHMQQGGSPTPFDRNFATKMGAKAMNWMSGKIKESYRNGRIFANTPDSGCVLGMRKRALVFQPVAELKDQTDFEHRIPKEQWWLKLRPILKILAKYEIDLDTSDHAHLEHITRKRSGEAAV
protocol_description: coupled spectrophotometric PFK1 assay ([…] nm) with purified enzyme
value_type: pKi
Here pKi is given on a logarithmic scale as minus log10 of the concentration in mol/L.

Entry O=C(O)CC(O)(CC(=O)O)C(=O)O [citrate] has what pKi?
3.30
